// reported EC50 per item
study-target: human mGlu4 receptor (Homo sapiens (Human), UniProt Q14833)
Sequence (Q14833 33-912): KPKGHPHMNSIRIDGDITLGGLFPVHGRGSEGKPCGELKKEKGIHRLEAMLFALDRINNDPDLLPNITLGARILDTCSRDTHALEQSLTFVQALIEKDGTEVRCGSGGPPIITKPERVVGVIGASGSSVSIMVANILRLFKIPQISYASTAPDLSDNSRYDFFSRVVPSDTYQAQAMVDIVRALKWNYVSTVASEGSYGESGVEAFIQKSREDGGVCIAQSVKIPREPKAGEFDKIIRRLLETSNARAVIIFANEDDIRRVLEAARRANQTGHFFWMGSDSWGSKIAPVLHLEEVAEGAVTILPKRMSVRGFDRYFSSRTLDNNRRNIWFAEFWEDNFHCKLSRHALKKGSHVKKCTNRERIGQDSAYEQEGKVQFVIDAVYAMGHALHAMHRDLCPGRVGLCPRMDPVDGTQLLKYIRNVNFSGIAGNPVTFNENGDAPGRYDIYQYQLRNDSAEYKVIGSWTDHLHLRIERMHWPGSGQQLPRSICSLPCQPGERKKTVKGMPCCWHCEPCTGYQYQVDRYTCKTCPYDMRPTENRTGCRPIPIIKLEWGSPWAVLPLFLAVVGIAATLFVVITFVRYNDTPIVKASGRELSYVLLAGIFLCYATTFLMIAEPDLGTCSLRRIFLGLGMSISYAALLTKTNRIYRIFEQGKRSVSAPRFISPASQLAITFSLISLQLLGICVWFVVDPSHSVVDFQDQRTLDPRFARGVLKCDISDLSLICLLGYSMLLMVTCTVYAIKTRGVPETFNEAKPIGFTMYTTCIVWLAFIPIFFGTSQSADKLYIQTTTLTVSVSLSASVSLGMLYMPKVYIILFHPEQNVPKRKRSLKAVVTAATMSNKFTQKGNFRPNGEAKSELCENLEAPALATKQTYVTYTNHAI
assay-method-text: Ca2+ mobilization in vitro assay on recombinant human mGlu4 expressed in HEK293 cells (PAM)
Format: cell-based
stated-conditions: HEK293 cells, human mGlu4, in presence of EC20 of L-AP4; read-out: EC50 (nM) mGlu4PAM
property: EC50 (nM)

molecule	recorded-measurement
CC12CC(=O)N(c3c(F)cc(C#Cc4ccccc4)cc3F)C(=O)N1CCN(c1cccnc1)C2=O (racemic)	118
COc1ccc(N2CCN3C(=O)N(c4c(F)cc(C#Cc5ccccc5)cc4F)C(=O)CC3(C)C2=O)cn1 (racemic)	105
Cn1nc(N2CCN3C(=O)N(c4c(F)cc(C#Cc5ccccc5)cc4F)C(=O)C[C@@]3(C)C2=O)ccc1=O	197
Cn1cc(N2CCN3C(=O)N(c4c(F)cc(C#Cc5ccccc5F)cc4F)C(=O)C[C@@]3(C)C2=O)cn1	56

----------
study-target: human mGlu4 receptor (Homo sapiens (Human), UniProt Q14833)
assay-method-text: Ca2+ mobilization in vitro assay on recombinant human mGlu4 expressed in HEK293 cells (PAM)
Format: cell-based
stated-conditions: HEK293 cells, human mGlu4, in presence of EC20 of L-AP4; read-out: EC50 (nM) mGlu4PAM
// reported EC50 per item

compound	EC50 / nM
C[C@@]12CC(=O)N(c3c(F)cc(C#Cc4ccccc4)cc3F)C(=O)N1CCN(c1cnc(O)nc1)C2=O	73
COCCCN1CCN2C(=O)N(c3c(F)cc(C#Cc4ccccc4)cc3F)C(=O)C[C@@]2(C)C1=O	135
C[C@@]12CC(=O)N(c3c(F)cc(C#Cc4ccccc4F)cc3F)C(=O)N1CCN(c1cccnc1)C2=O	56
Cc1cncc(N2CCN3C(=O)N(c4c(F)cc(C#Cc5ccccc5)cc4F)C(=O)CC3(C)C2=O)n1 (racemic)	148

----------
study-target: human mGlu4 receptor (Homo sapiens (Human))
assay-method-text: Ca2+ mobilization in vitro assay on recombinant human mGlu4 expressed in HEK293 cells (PAM)
Format: cell-based
stated-conditions: HEK293; maximal response in % of maximal stimulatory effect of saturating L-AP4; read-out: Eff. (%)
property: Emax (%)

compound	property	measurement-units	recorded-measurement
Cc1cnc(N2CCN3C(=O)N(c4c(F)cc(C#Cc5ccccc5)cc4F)C(=O)CC3(C)C2=O)s1 (racemic) [Example 53]	Emax	%	100
C[C@@]12CC(=O)N(c3c(F)cc(C#Cc4ccccc4)cc3F)C(=O)N1CCN(c1cnc(O)nc1)C2=O [Example 42]	Emax	%	129
Cn1nc(N2CCN3C(=O)N(c4c(F)cc(C#Cc5ccccc5)cc4F)C(=O)C[C@@]3(C)C2=O)ccc1=O [Example 49]	Emax	%	109
Cn1cnc(N2CCN3C(=O)N(c4c(F)cc(C#Cc5ccccc5)cc4F)C(=O)CC3(C)C2=O)c1 (racemic) [Example 58]	Emax	%	91

----------
study-target: UniProt:Q14833
assay-method-text: Ca2+ mobilization in vitro assay on recombinant human mGlu4 expressed in HEK293 cells (PAM)
Type: cell-based
stated-conditions: HEK293; maximal response in % of maximal stimulatory effect of saturating L-AP4; read-out: Eff. (%)

compound	study-target	measurement-units	Emax
C[C@@]12CC(=O)N(c3c(F)cc(C#Cc4ccccc4)cc3F)C(=O)N1CCN(c1ccccn1)C2=O	UniProt:Q14833	%	92
O=C1C2CC(=O)N(c3c(F)cc(C#Cc4ccccc4)cc3F)C(=O)N2CCN1c1ccncn1 (racemic)	UniProt:Q14833	%	88
CCOC(=O)CCCN1CCN2C(=O)N(c3c(F)cc(C#Cc4ccccc4)cc3F)C(=O)C[C@@]2(C)C1=O	UniProt:Q14833	%	134
COc1cnc(N2CCN3C(=O)N(c4c(F)cc(C#Cc5ccccc5)cc4F)C(=O)C[C@@]3(C)C2=O)cn1	UniProt:Q14833	%	107
Cc1ccc(N2CCN3C(=O)N(c4c(F)cc(C#Cc5ccccc5)cc4F)C(=O)CC3(C)C2=O)cn1 (racemic)	UniProt:Q14833	%	125
C[C@@]12CC(=O)N(c3c(F)cc(C#Cc4ccccc4)cc3F)C(=O)N1CCN(c1ccc(Cl)nc1)C2=O	UniProt:Q14833	%	142
COC[C@@]12CC(=O)N(c3c(F)cc(C#Cc4ccccc4)cc3F)C(=O)N1CCN(c1cccnc1)C2=O	UniProt:Q14833	%	118
